Test system: gene editing with Cas9
run description: Screen of 322 new SSAP proteins, gene editing activity with Cas9 (Table 5)
Assay type: cell-based
experimental conditions: normalized
property label: Cas9 with SSAP activity (normalized)
# respond with the number and nothing more

Below are worked cases with known answers.
molecule="SSAP_127: SEQ ID NO: 296; Solibacillus sp. R5-41 (protein, listed as Solibacillus sp.) ATSNELKKQAQGQVTAKPTTPEGSLNALLKKMGPEIQRALPKHMDADRIARIALTAVRTTPKLLECDQLSFVAALMQSAQLGVEPNTGLGQAYLIPYGGKVQFQLGYKGLIDLAVRSGQYKAIYAHEVYADDEFSFAYGLHKDLVHVPSANPSGDPIGYYAVYHLKNGGYDFVYWTRERIDIHSKAFSQAVQKGWTSPWKTNYDAMAKKTVLKEVLKYAPKSIEMQKVVEADETIKNEVAPDMSNVIDVTDYSILEDPQDVTDAQ" recorded_number=0.447
molecule="SSAP_291: SEQ ID NO: 460; Nocardia pseudobrasiliensis (protein, listed as Nocardia pseudobrasiliensis) SSIANAANASELTPASIVNRYRDDIAAVLPPKLQARIDRWLRLAIGAVNSNADLVDRVRADQGASMMQTLMKCAALGHEPGSGLFHLVPKGPRIEGWEDYKGVLQRIDRSGVYARVVVEVVHANDDYAYDPNLDDRPQHKRAAADRGEPVSAYAYAVYPNGAVTAVAEATPELIAASKAKARGADNASSPWRAPGAPMHRKVAIRQLEKFVATSAEDMREVAVRNAAPDVEDAPADYYQEP" recorded_number=−1.341
molecule="SSAP_268: SEQ ID NO: 437; Oceanobacillus sp. E9 (protein, listed as Oceanobacillus sp.) ATNDSLKNQLSSKQGNQNTPSGYTIKQLMGAESVKKRFEEMLDSKASQFMASVINLVNGDTNLQKCDQMSVVSSAMVAATLDLPIDRNLGYAWVIPYGNQATFQLGYKGYIQLALRSGQYRNINVIEVYEGELQSFNRLTEEIELDFEKRTSDKVIGYTGFFELINGFRKTVYWSKAEIEKHKNKFSKSGFGWKNDWDAMAKKTVVRNMLNKWGILSIDMQKAYVEETKDPSEPNGEVIDLNLTEDELTAAQEQFSDENANE" recorded_number=−0.383

Next, consider the following molecule.
Prompt: Given the entry SSAP_76: SEQ ID NO: 245 (protein) ANELGIFSVDNLNMTTIKQYLDGGGKASDAELVLLINLCKQNNMNPFMKEVYFIKYGNQPAQIVVSRDFYRKRAFQNPNFAGIEVGVIVLNKDGVLEHNEGTFKTHEQELVGAWARVHLKNTEIPVYVAVSYDEYVQMKDGHPNKMWTNKPCTMLGKVAESQALRMAFPAEFSGTYGEEELPEPEKEPREVNGVKEPDRAQIESFDKEDYAARKIEELKEKAQPQKEVVKETGEVIDEITAEDF , report its measured Cas9 with SSAP activity (normalized).
Completion: −0.267
